# test_description: cytotoxicity in MT-4 cells (MTT, culture medium in place of HIV)
# Format: cell-based
# measurement_context: human; MT-4 cells, no virus, 37° C., 5 days, MTT; Table 3; read-out: CC50
readout: CC50 at 120 h

Lookup: # lookup: CC50 at 120 h of CC(C)c1nc(CN)n(C)c1Sc1ccccc1 [Compound I-74]
Found: 12.5 to 25 µg/mL

Lookup: Which CC50 at 120 h value belongs to Cc1cc(C)cc(Sc2c(C(C)C)nc(C=NN)n2C)c1 [Compound I-11] ?
Found: 1 to 10 µg/mL

Lookup: Would you mind telling me what CC50 at 120 h value was observed for CC(C)c1nc(CO)n(Cc2ccccc2)c1Sc1cccc([N+](=O)[O-])c1 [Compound I-21] ?
Found: 6.3 to 12.5 µg/mL

Lookup: Item CCCn1c(CO)nc(C(C)C)c1Sc1cccc(Cl)c1 [Compound I-29] has what recorded CC50 at 120 h?
Found: 12.5 µg/mL

Lookup: Return reported CC50 at 120 h; argument: CC(C)c1nc(CNS(C)(=O)=O)n(C)c1Sc1cc(Cl)cc(Cl)c1 [Compound I-87]
Found: 10 to 100 µg/mL

Lookup: // CC50 at 120 h lookup, key: CC(C)c1nc(CC(=O)O)n(C)c1Sc1cc(Cl)cc(Cl)c1 [Compound I-80]
Found: 10 to 100 µg/mL

###

# tested_on: purified recombinant HIV-1 reverse transcriptase (Human immunodeficiency virus type 1 group M subtype B, UniProt P04585)
# Construct: purified recombinant HIV-1 reverse transcriptase; made in house; host or cells: Escherichia coli
# test_description: reverse transcriptase inhibition, poly(rA)/(dT) template primer, [3H]dTTP uptake
# Type: biochemical
pIC50: −log10 of the molar value. Structures can show the parent of a compound that is named as a salt.
Can you tell me pIC50 for the items I'm about to list?

Lookup: # get_value(readout='pIC50', item= CC(C)c1nc(CO)n(Cc2ccc(C(C)(C)C)cc2)c1Sc1cc(Cl)cc(Cl)c1 [Compound I-116, hydrochloride] )
Found: < 3.70

Lookup: Fill in: pIC50 of CC(C)c1nc(CNS(C)(=O)=O)n(C)c1Sc1cc(Cl)cc(Cl)c1 [Compound I-87] is ___
Found: < 3.61

Lookup: pIC50 lookup needed for CCOC(=O)Cn1c(COCc2ccccc2)nc(C(C)C)c1Sc1cc(Cl)cc(Cl)c1 [Compound 118b] , thanks.
Found: < 3.69

Lookup: What value of pIC50 has been recorded for this entry: Cc1cc(C)cc(Sc2c(C(C)C)nc(C=NO)n2C)c1 [Compound I-10]
Found: < 3.48

Lookup: # input compound: Cc1cc(C)cc([S+]([O-])c2c(C(C)C)nc(CO)n2C)c1 (stereo not drawn) [Compound I-106] ; wanted: its pIC50
Found: < 3.49

Lookup: Quick check: pIC50 of CC(C)c1nc(CO)n(CCCCCCc2ccccc2)c1Sc1cc(Cl)cc(Cl)c1 [Compound I-125] ?
Found: < 3.68

###

# tested_on: purified recombinant HIV-1 reverse transcriptase (Human immunodeficiency virus type 1 group M subtype B, UniProt P04585)
# Construct: purified recombinant HIV-1 reverse transcriptase; made in house; host or cells: Escherichia coli
# test_description: reverse transcriptase inhibition, poly(rA)/(dT) template primer, [3H]dTTP uptake
# Assay type: biochemical
Task for the reader: assign each of the following compounds its reported IC50.

Lookup: Can you share its IC50? I mean this compound: Cc1ccc(S(=O)(=O)NCc2nc(C(C)C)c(Sc3cc(Cl)cc(Cl)c3)n2C)cc1 [Compound I-88]
Found: > 206 µM

Lookup: Need IC50, item CC(C)c1nc(COCc2ccccc2)n(CCO)c1Sc1cc(Cl)cc(Cl)c1 [Compound 118c]
Found: > 222 µM

Lookup: Sample CC(=N)NCc1nc(C(C)C)c(Sc2cc(Cl)cc(Cl)c2)n1C [Compound I-84] — what was its IC50?
Found: > 269 µM

Lookup: Given CC(C)c1c(Sc2cccc(Cl)c2)nc(COC(N)=O)n1C [Compound I-59] , state its recorded IC50.
Found: > 294 µM

Lookup: Can you share its IC50? I mean this compound: CC(C)c1nc(CO)n(CCCCCc2ccccc2)c1Sc1cc(Cl)cc(Cl)c1 [Compound I-124]
Found: > 216 µM
